Assay: In vitro solubility assessment
Format: physicochemical
Conditions: at physiological pH in the intestine
Counter-ions that a name gives are not always drawn.
measured.parameter: solubility

[[record]]
compound = "CC(C)(C)c1cc(NC(=O)Nc2ccc(-c3cn4c(n3)sc3cc(OCCN5CCOCC5)ccc34)cc2)no1 [quizartinib dihydrochloride]"
measured_result = "< 0.4 µg/mL"


* * *

Assay: Phase 1 drug–drug interaction study: plasma PK of quizartinib, AC886 and quizartinib + AC886 after a single 30-mg quizartinib tablet alone or with lansoprazole
Type: in vivo, human
Settings: human, plasma, oral; read-out: Mean T1/2 (SD), arithmetic mean (converted)
measured.parameter: half-life (h)

[[record]]
compound = "CC(C)(C)c1cc(NC(=O)Nc2ccc(-c3cn4c(n3)sc3cc(OCCN5CCOCC5)ccc34)cc2)no1 [Quizartinib, quizartinib]"
measured_result = 107

